Test system: human maximum recommended daily dose, FDA database
measurement description: DSSTox (FDAMDD) FDA Maximum (Recommended) Daily Dose Database
conditions: TherapeuticCategory: skeletal muscle relaxant; hits give low values
measured quantity: maximum recommended daily dose (mmol/kg-bw/day)

molecule	assay value
CC(=O)OC1C([N+]2(C)CCCCC2)C[C@H]2[C@@H]3CC[C@H]4C[C@H](OC(C)=O)C(N5CCCCC5)C[C@]4(C)[C@H]3CC[C@]12C (some centres not stated)	0.000157
C[N+](C)(C)CCCCCCCCCC[N+](C)(C)C	9.97e-05
COc1ccc2cc1Oc1cc3c(cc1OC)CC[N+](C)(C)[C@H]3Cc1ccc(cc1)Oc1c(OC)c(OC)cc3c1[C@@H](C2)[N+](C)(C)CC3	0.000441
CC(=O)O[C@H]1C[C@@H]2CC[C@@H]3[C@H](CC[C@@]4(C)[C@H]3C[C@H]([N+]3(C)CCCCC3)[C@@H]4OC(C)=O)[C@@]2(C)C[C@@H]1[N+]1(C)CCCCC1	0.000136
Cc1c(-c2ccccc2)n(/N=N/n2c(-c3ccccc3)c(C)[n+]3ccccc23)c2cccc[n+]12	0.00165
COc1ccccc1OCC(O)COC(N)=O (configuration not stated)	0.415
O=C1CN(/N=C/c2ccc(-c3ccc([N+](=O)[O-])cc3)o2)C(=O)N1	0.0212
C[N+](C)(C)CCOC(=O)CCC(=O)OCC[N+](C)(C)C	0.00304
Cc1ccc(C(=O)C(C)CN2CCCCC2)cc1 (configuration not stated)	0.0204
Cc1ccccc1-n1c(CF)nc2ccc(N)cc2c1=O	0.00353
CC(=O)O[C@H]1C[C@@H]2CC[C@@H]3[C@H](CC[C@@]4(C)[C@H]3C[C@H](N3CC[N+](C)(C)CC3)[C@@H]4OC(C)=O)[C@@]2(C)C[C@@H]1N1CC[N+](C)(C)CC1	0.000118
NCC(CC(=O)O)c1ccc(Cl)cc1 (configuration not stated)	0.00622

* * *

Test system: human maximum recommended daily dose, FDA database
measurement description: DSSTox (FDAMDD) FDA Maximum (Recommended) Daily Dose Database
conditions: TherapeuticCategory: antidepressant; hits give low values
Listing of recorded maximum recommended daily dose (mmol/kg-bw/day) by entry.
measured quantity: maximum recommended daily dose (mmol/kg-bw/day)

compound	assay value
COc1ccc(C(CN(C)C)C2(O)CCCCC2)cc1 (centres undefined)	0.0225
CN(C)CCCC1(c2ccc(F)cc2)OCc2cc(C#N)ccc21 (centres undefined)	0.00308
CC(CC1c2ccccc2CCc2ccccc21)CN(C)C (centres undefined)	0.00852
O=C(CCNNC(=O)c1ccncc1)NCc1ccccc1	0.0112

* * *

Tested on: human maximum recommended daily dose, FDA database
measurement description: DSSTox (FDAMDD) FDA Maximum (Recommended) Daily Dose Database
conditions: TherapeuticCategory: antipsychotic; hits give low values
# label = bin(measured maximum recommended daily dose (mmol/kg-bw/day)), where bins are low range = under 0.003, mid range = from 0.003 up to 0.02, high range = 0.02 and over

molecule	cat
CN1CCN(C2=Nc3cc(Cl)ccc3Nc3ccccc32)CC1	high range
O=C(CCCN1CCC(O)(c2cccc(C(F)(F)F)c2)CC1)c1ccc(F)cc1	low range
CCC(=O)c1ccc2c(c1)N(CCCN1CCN(CCO)CC1)c1ccccc1S2	mid range
O=C(CCCN1CCC(O)(c2ccc(Br)cc2)CC1)c1ccc(F)cc1	low range
CN(C)CC/C=C1\c2ccccc2Sc2ccc(Cl)cc21	mid range
CC(=O)OCCN1CCN(CCCN2c3ccccc3Sc3ccc(Cl)cc32)CC1	mid range
CC(=O)c1ccc2c(c1)N(CCCN1CCC(CCO)CC1)c1ccccc1S2	mid range
CCc1c(C)[nH]c2c1C(=O)C(CN1CCOCC1)CC2 (stereo unspecified)	mid range
Cc1cc2c(s1)Nc1ccccc1N=C2N1CCN(C)CC1	low range
CN(C)CCCN1c2ccccc2Sc2ccc(C(F)(F)F)cc21	mid range
O=c1[nH]c2ccccc2n1C1CCN(CCCC(c2ccc(F)cc2)c2ccc(F)cc2)CC1	low range
CN(C)CCCN1c2ccccc2Sc2ccccc21	high range
CC(=O)c1ccc2c(c1)N(CCCN1CCN(CCO)CC1)c1ccccc1S2	high range
O=C(CCCN1CCC(n2c(=S)[nH]c3ccccc32)CC1)c1ccc(F)cc1	low range
OCCOCCN1CCN(C2=Nc3ccccc3Sc3ccccc32)CC1	high range
CN(C)CCOC1=Cc2ccccc2Sc2ccc(Cl)cc21	high range
